src = patent US20230310428A1

Answer each item with its documented pIC50.
- study_system: various mutants of kinase EGFR (BaF3 cell lines stably transfected with kinase) (Homo sapiens, UniProt P00533, C797S/L858R/T790M)
- Construct: expressed in transfected cells; host or cells: BaF3
- Sequence (P00533 25-1210 T790M/C797S/L858R): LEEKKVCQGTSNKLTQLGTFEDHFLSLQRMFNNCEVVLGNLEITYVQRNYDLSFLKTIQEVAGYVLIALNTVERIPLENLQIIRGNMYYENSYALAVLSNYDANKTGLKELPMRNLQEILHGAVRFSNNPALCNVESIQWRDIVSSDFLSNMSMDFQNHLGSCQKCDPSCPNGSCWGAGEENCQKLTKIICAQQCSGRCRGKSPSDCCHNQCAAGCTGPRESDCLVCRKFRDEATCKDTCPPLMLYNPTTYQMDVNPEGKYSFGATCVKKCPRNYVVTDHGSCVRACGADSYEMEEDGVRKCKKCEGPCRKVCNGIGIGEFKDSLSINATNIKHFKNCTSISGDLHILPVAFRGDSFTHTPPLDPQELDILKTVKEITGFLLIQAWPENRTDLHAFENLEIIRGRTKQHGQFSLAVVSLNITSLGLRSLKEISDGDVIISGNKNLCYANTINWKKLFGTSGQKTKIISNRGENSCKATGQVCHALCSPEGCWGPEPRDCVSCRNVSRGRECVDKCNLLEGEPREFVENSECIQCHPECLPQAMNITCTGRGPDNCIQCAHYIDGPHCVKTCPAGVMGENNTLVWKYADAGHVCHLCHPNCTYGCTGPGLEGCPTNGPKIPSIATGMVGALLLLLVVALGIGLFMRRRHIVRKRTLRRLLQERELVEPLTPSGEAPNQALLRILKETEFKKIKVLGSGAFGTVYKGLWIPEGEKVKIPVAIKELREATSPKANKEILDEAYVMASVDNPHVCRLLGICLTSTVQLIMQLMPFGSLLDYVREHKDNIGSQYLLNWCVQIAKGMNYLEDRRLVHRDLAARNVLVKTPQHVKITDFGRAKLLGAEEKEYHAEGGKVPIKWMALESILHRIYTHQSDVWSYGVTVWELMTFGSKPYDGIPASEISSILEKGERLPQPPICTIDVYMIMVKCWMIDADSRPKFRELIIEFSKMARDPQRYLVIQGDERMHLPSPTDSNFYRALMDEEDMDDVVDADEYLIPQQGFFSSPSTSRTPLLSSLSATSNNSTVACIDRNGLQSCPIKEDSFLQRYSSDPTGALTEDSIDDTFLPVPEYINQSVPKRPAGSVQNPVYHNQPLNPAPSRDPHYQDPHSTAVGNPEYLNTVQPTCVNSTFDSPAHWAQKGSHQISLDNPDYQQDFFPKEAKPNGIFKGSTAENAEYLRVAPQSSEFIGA
- assay_overview: Growth inhibitory activity of compounds on BaF3 cell lines stably transfected with kinase (MTS, 48 h)
- Type: cell-based
- assay_conditions: BaF3 cells stably transfected with EGFR L858R/T790M/C797S, read-out: IC50, growth inhibition, L858R/T790M/C797S
pIC50: −log10 of the molar value.

stdin: Report pIC50 for COc1cc(N2CCC(N3CCN(C)CC3)CC2)c(CC2CC2)cc1Nc1ncc(Br)c(Nc2ccc3nccnc3c2N(C)S(=O)(=O)C(F)(F)F)n1 [Compound I-259] please.
stdout: 6.30 to 7.30

stdin: What does the data say about its pIC50? Entry: CCc1cc(Nc2ncc(Cl)c(Nc3ccc4nccnc4c3N(CC)S(C)(=O)=O)n2)c(OC(F)(F)F)cc1N1CCC(N2CCN(C)CC2)CC1 [Compound I-111]
stdout: 6.30 to 7.30

stdin: I am curious: what pIC50 value has been reported for COc1cc(N2CCC(N3CCN(C)CC3)CC2)ccc1Nc1ncc(C#N)c(Nc2ccc3nccnc3c2N(C)S(C)(=O)=O)n1 [Compound I-27] ?
stdout: 5.60 to 6.30

stdin: Suppose we examine the compound CCc1cc(Nc2ncc(Cl)c(Nc3ccc4nccnc4c3N(C)S(=O)(=O)CC)n2)c(OC(F)(F)F)cc1N1CCC(N2CCN(C)CC2)CC1 [Compound I-116] ; what pIC50 value has been reported?
stdout: 6.30 to 7.30

stdin: Fill blank: measured pIC50 of the compound COc1cc(N2CCOCC2)ccc1Nc1ncc(Br)c(Nc2ccc3nccnc3c2N(C)S(C)(=O)=O)n1 [Compound I-45] is ____.
stdout: ≥ 7.30

stdin: Field request: pIC50 | item: CCc1cc(Nc2ncc(F)c(Nc3ccc4nccnc4c3N(C)S(C)(=O)=O)n2)c(OC)cc1N1CCC(N(C)C)CC1 [Compound I-184]
stdout: ≥ 7.30

stdin: Could you share which pIC50 value was measured for COc1cc(N2CCC(N3CCN(C)CC3)CC2)ccc1Nc1ncc(F)c(Nc2ccc3nccnc3c2N(C)S(=O)(=O)C2CC2)n1 [Compound I-247] ?
stdout: 5.60 to 6.30

stdin: # query: pIC50 of entry COc1cc(N2CCC(N3CCN(C)CC3)CC2)c(C2CC2)cc1Nc1ncc(Br)c(Nc2ccc3nccnc3c2N(C)S(C)(=O)=O)n1 [Compound I-285]
stdout: ≥ 7.30
